MEASURED_TARGET: Marburg virus GP (Ravn) (Marburg virus, Ravn strain, UniProt Q1PDC7 19-681)
ASSAY_INFO: cell-based or functional assay
PARAMETER_MEASURED: VSVdG/GP Neutralization (%)
Write the number in % without appending the unit.

## Task Please look up its VSVdG/GP Neutralization: CAN30G5 (antibody, V domains shown) VH: EVQLVESGGGLVQPKGSLKLSCAASGFAFNSYAMHWVCQAPGKGLEWVARIRIKSGNYATSYAGSVTDRFTVSRDDSQNLFYLQMNNLKTEDTAMYYCVREWEGAMDYWGQGTSVTVSS VL: DIVLTQSPLSLPVSLGDQASISCRSSQSLVHSNGNTYLHWYLQKPGQSPNLLIYKVSNRFSGVPDRFSGSGSGTDFTLKISRVEAEDLGVYFCSQSTHVPWTFGGGTKLEIK
## Result 50
